molecular target: WT MelBSt (Salmonella typhimurium, UniProt P30878); construct: Cys scanning mutagenesis for the full-length MelBSt; His10 (C); made in house; host or cells: E. coli DW2; experiment: biochemical; type: binding; conditions: Melibiose (50 mM); ITC 25 °C; read-out: Kd, Li+ binding
Sequence (P30878 whole entry): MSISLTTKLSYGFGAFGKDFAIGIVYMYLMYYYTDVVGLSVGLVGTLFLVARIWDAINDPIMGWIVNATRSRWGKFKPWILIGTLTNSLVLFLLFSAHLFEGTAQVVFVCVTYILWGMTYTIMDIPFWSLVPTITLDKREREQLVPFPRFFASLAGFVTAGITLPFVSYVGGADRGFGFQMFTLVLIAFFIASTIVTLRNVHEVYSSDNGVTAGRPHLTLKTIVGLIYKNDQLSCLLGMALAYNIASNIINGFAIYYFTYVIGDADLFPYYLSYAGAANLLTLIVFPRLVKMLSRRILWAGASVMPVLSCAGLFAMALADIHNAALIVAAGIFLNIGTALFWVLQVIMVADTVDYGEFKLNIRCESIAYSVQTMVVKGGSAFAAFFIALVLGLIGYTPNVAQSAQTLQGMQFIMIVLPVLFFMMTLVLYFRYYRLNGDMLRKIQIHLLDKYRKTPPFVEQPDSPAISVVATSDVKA
Observable: Kd (µM)
I only need the number, in µM, no unit after it.

Measured Kd of [Li+] [Li^+] : 70

* * *

target: D59C MelBSt (Salmonella typhimurium, UniProt P30878, D59C); construct: Cys scanning mutagenesis for the full-length MelBSt; His10 (C); made in house; host or cells: E. coli DW2; assay: Trp→dansyl galactoside (D2G) FRET time trace and IC50 of D2G displacement (D59C); type: binding; details: IC50 of galactoside displacement on bound D2G, DDMB, Na+ (100 mM); 10 μM D2G; value could be over-estimated
Sequence (P30878 whole entry D59C): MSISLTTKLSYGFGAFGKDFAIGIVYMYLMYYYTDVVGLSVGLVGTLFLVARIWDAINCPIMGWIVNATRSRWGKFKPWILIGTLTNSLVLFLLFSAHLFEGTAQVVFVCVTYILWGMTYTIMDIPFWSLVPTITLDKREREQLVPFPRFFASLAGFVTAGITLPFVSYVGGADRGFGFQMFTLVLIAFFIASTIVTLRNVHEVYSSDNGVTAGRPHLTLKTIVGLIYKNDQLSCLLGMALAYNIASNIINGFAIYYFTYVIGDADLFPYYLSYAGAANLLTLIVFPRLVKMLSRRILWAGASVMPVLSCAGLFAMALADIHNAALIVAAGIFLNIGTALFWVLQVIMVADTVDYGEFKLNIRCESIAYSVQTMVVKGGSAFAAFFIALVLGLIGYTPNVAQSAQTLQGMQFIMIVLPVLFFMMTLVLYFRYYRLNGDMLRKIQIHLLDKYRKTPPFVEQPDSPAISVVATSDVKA
Observable: IC50 (µM)
Output spec: scalar in µM, unitless text.

Briefly, IC50 measured for CCCCCCCCCCCCOC1OC(COC2OC(CO)C(O)C(O)C2O)C(O)C(O)C1O [DDMB, dodecyl-β-D-melibioside] : 23.6

* * *

target: WT MelBSt (Salmonella typhimurium); construct: Cys scanning mutagenesis for the full-length MelBSt; His10 (C); made in house; host or cells: E. coli DW2; test: biochemical; assay type: binding; details: IC50 of galactoside displacement on bound D2G, α-NPG, Na+ (100 mM); 10 μM D2G
Observable: IC50
Mention the unit after the number when you answer.

Measured IC50, O=[N+]([O-])c1ccc(OC2OC(CO)C(O)C(O)C2O)cc1 [α-NPG, 4-nitrophenyl-α-D-galactopyranoside] : 23 µM

* * *

molecular target: WT MelBSt (Salmonella typhimurium); construct: Cys scanning mutagenesis for the full-length MelBSt; His10 (C); made in house; host or cells: E. coli DW2; test: biochemical; assay type: binding; conditions: apo MelB; rebuttal letter; read-out: affinity of apo MelB
Observable: pKd
Just so you know, pKd here is -log10 of the concentration in molar units; reply with that number alone.

Measured pKd, [Na+] : 3.30

* * *

Molecular target: WT MelBSt (Salmonella typhimurium)
Construct: Cys scanning mutagenesis for the full-length MelBSt; His10 (C); made in house; host or cells: E. coli DW2
Test: biochemical
Format: binding
Details: IC50 of galactoside displacement on bound D2G, DDMB, Apo; 10 μM D2G; value could be over-estimated
Protocol: Fig. 1 Functional characterizations. a [^3H] Melibiose transport time course with intact cells. […] Inset, melibiose fermentation assay. […] Purified proteins at 1 μM concentration in 20 mM Tris-HCl, pH 7.5, 100 mM CholCl, 10% glycerol, and 0.03% UDM were subjected to steady-state fluorescence measurements as described in Methods. […]
Observable: IC50 (µM)
The response must be a number in µM with no trailing unit.

Summary for this compound, CCCCCCCCCCCCOC1OC(COC2OC(CO)C(O)C(O)C2O)C(O)C(O)C1O [DDMB, dodecyl-β-D-melibioside] : IC50 is 26.1

* * *

target: WT MelBSt (Salmonella typhimurium, UniProt P30878); construct: Cys scanning mutagenesis for the full-length MelBSt; His10 (C); made in house; host or cells: E. coli DW2; assay: biochemical; format: binding; settings: IC50 of galactoside displacement on bound D2G, α-NPG, Apo; 10 μM D2G
Observable: IC50
Provide a numeric answer, followed by its unit.

O=[N+]([O-])c1ccc(OC2OC(CO)C(O)C(O)C2O)cc1 [α-NPG, 4-nitrophenyl-α-D-galactopyranoside] yielded IC50 of 58.2 µM
